CDC % Relative activity for assorted binders
target: human Claudin18.2 (human); assay: cell-based or functional assay
RECORDED_ENDPOINT: CDC % Relative activity (%)

1) 418G6A5 (antibody, V domains shown) VH: DVQLVESGGGLVQPGGSRKLSCVASGFTFSSFGMHWVRQAPEKGLEWVAYISSGSSPMYYADTVKGRFTISRDNPKNTLFLQMTSLRSEDTAMYFCARIYYGNSFAYWGQGTLVTVSA VL: DIVMTQSPSSLTVTAGEKVTMSCKSSQSLLNSGNQKNYLTWYQQKPGQPPKLLIYWASTRESGVPDRFTGSGSGTDFTLTISSVQAEDLAVYYCQNAYSYPLTFGAGTKLELK; 207
2) 252F1B10 (antibody, V domains shown) VH: QAYLQQSGAELVRSGASVKMSCKASGYTFTSHNMHWVKQTPGQGLEWIGYIYPGNGGTNYNQKFKGKATLTADTSSSTAYMQINSLTSEDSAVYFCTRDYYGNSFAYWGQGTLVTVSA VL: DIVMTQSPSSLTEKAGERVSMSCKSSQSLFNSGNQKNYLTWYQQKPGQPPKLLIYWASTRESGVPDRFTGSGSGTDFTLTISSVQAEDLAVYYCQNDYRYPFTFGAGTKLELK; 104
3) 429H6C5 (antibody, V domains shown) VH: DVQLVESGGGLVQPGGSRKLSCAASGFTFSSFGMHWVRQAPEKELEWVAYISSGSSTIYYAHTVKGRFTISRDNPKNTLFLRMTSLGSEDTAMYYCVRFYYGNSFVNWGQGTLVTVSA VL: DIVMTQSPSSLTATAGEKVTMSCKSSQSLLNSGNQKNYLTWYQQKPGQPPKMLIYWASTRESGVPDRFAGSGSGTDFTLTISSVQAEDLAVYYCQNAYIYPLTFGAGTRLELK; 331
4) 391H11H3 (antibody, V domains shown) VH: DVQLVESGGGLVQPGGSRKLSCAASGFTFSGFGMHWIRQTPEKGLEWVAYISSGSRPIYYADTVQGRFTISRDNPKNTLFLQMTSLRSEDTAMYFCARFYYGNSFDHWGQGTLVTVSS VL: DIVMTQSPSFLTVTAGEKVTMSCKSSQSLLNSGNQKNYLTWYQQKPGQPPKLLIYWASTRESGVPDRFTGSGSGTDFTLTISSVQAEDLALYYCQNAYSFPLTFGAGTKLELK; 125

Reference for the values: patent US20220073643A1
